Target: human Fatty Acid Synthase (Homo sapiens)
Construct: made in house
Sequence (P49327 whole entry): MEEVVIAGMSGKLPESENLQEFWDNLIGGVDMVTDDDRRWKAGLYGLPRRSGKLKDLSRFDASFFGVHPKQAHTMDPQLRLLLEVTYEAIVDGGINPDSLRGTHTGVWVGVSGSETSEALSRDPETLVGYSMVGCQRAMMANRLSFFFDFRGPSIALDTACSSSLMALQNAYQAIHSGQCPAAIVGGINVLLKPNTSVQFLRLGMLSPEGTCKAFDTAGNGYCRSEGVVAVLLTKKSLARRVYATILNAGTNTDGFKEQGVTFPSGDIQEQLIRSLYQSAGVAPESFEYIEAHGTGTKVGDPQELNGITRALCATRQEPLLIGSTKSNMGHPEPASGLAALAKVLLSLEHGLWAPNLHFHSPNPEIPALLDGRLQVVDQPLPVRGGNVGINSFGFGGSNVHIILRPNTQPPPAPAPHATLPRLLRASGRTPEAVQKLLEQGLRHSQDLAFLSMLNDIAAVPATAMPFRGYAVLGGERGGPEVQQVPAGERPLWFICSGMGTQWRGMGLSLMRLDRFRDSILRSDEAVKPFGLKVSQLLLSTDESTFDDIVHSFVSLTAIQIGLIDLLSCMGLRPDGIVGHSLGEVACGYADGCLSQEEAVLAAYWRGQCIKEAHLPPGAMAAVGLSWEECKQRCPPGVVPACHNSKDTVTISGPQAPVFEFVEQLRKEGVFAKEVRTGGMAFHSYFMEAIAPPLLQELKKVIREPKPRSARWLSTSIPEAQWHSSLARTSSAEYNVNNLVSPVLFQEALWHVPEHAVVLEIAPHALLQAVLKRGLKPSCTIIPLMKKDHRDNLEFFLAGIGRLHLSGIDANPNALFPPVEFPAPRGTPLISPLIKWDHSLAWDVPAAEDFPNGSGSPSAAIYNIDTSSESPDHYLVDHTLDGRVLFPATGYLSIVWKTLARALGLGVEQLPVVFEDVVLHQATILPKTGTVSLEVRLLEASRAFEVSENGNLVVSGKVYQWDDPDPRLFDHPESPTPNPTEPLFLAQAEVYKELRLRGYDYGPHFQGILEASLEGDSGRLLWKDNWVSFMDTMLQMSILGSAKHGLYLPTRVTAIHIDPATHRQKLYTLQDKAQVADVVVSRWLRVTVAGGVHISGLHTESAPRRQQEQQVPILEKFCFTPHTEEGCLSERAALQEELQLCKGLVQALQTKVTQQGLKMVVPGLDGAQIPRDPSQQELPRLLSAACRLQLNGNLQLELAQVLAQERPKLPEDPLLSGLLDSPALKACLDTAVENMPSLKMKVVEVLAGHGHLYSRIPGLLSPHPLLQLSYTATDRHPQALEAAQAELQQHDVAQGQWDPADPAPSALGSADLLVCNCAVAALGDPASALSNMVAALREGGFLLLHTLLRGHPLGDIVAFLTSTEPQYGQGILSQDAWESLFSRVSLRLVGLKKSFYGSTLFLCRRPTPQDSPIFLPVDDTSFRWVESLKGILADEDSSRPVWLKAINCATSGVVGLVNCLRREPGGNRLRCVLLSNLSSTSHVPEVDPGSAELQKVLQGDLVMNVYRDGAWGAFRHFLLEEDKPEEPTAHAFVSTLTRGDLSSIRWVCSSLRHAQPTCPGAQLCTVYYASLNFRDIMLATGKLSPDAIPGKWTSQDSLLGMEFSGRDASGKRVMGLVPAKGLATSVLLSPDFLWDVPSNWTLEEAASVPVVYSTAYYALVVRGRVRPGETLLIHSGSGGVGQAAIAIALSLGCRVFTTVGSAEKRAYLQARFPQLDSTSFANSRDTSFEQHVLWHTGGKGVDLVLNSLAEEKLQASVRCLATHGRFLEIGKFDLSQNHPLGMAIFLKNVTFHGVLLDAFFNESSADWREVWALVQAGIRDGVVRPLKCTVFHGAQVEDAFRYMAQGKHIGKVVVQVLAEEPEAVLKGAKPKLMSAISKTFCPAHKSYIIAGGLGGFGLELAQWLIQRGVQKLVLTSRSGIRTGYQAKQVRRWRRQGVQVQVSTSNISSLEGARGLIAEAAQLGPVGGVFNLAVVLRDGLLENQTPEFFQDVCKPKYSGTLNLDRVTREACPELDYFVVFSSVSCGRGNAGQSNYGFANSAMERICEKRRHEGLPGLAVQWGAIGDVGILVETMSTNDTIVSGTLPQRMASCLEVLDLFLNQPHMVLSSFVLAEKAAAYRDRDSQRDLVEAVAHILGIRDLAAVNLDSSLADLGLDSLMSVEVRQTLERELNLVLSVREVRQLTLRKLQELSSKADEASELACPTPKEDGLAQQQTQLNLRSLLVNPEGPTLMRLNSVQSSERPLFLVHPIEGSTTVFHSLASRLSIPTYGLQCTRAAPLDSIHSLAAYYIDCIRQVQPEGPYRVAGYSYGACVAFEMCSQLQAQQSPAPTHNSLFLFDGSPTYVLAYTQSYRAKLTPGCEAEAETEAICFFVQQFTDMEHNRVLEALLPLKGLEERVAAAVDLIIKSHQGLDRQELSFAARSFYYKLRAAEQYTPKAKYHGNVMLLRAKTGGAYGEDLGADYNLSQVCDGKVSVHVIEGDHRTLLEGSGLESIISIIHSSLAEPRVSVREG
Test: Human FAS enzyme assay (decrease in NADPH fluorescence)
Assay type: biochemical
Conditions: % inhibition at a concentration of 100 micromolar
readout: inhibition at 100 µM (%)

Cc1ccc(NS(=O)(=O)Cc2ccc(S(C)(=O)=O)cc2)cc1C(=O)N1CCC(c2ccc(C#N)cc2)CC1 : 84
N#Cc1ccc(C2CCN(C(=O)c3ccc(F)c(NS(=O)(=O)Cc4ccccc4)c3)CC2)cc1 : 69
C=CCS(=O)(=O)Nc1cc(C(=O)N2CCC(c3ccc(C#N)cc3)CC2)ccc1C : 90
Cc1ccc(C(=O)N2CCC(c3ccc(C#N)cc3)CC2)cc1NS(=O)(=O)c1ccc(Cl)nc1 : 79
Cc1ccc(C(=O)N2CCC(c3ccc(C#N)cc3)CC2)cc1NS(=O)(=O)CC(C)C : 83
Cc1ccc(C(=O)N2CCC(c3ccc(C#N)cc3)CC2)cc1NS(=O)(=O)c1c(C)noc1C : 85
Cc1ccc(NS(C)(=O)=O)cc1C(=O)N1CCC(c2ccc(C#N)cc2)CC1 : 78
CCC(C)S(=O)(=O)Nc1ccc(C)c(C(=O)N2CCC(c3ccc(C#N)cc3)CC2)c1 (racemic) : 89
CCC(C)S(=O)(=O)Nc1cc(C(=O)N2CCC(c3ccc(C#N)cc3)CC2)ccc1C (racemic) : 92
Cc1ccc(NS(=O)(=O)Cc2ccccc2)cc1C(=O)N1CCC(c2ccc(C#N)cc2)CC1 : 82
CCCS(=O)(=O)Nc1cc(C(=O)N2CCC(c3ccc(C#N)cc3)CC2)c(C)cc1C : 98
Cc1ccc(C(=O)N2CCC(c3ccc(C#N)cc3)CC2)cc1NS(=O)(=O)CCC(=O)O : 81
COC(=O)CS(=O)(=O)Nc1cc(C(=O)N2CCC(c3ccc(C#N)cc3)CC2)ccc1C : 76
Cc1ccc(C(=O)N2CCC(c3ccc(C#N)cc3)CC2)cc1NS(=O)(=O)C1CCN(C)CC1 : 98
COc1ccc(NS(C)(=O)=O)cc1C(=O)N1CCC(c2ccc(C#N)cc2)CC1 : 71
CNC(=O)c1ccc(C2CCN(C(=O)c3ccc(C)c(NS(C)(=O)=O)c3)CC2)cc1 : 74
Cc1ccc(C(=O)N2CCC(c3ccc(C#N)cc3)CC2)cc1NS(=O)(=O)c1cnoc1C : 73
CCCC(C)S(=O)(=O)Nc1ccc(C)c(C(=O)N2CCC(c3ccc(C#N)cc3)CC2)c1 (stereo not shown) : 89
Cc1ccc(C(=O)N2CCC(c3ccc(C#N)cc3)CC2)cc1NS(=O)(=O)CCc1ccccc1 : 90
Cc1ccc(C(=O)N2CCC(c3ccc(C#N)cc3)CC2)cc1NS(=O)(=O)c1ccc(Cl)cc1 : 96
Cc1ccc(C(=O)N2CCC(c3ccc(S(N)(=O)=O)cc3)CC2)cc1NS(C)(=O)=O : 99
Cc1ccc(C(=O)N2CCC(c3ccc(C#N)cc3)CC2)cc1NS(=O)(=O)CCNC(=O)c1ccccc1 : 100
Cc1ccc(NS(=O)(=O)CCc2ccccc2)cc1C(=O)N1CCC(c2ccc(C#N)cc2)CC1 : 92
CCC1(CS(=O)(=O)Nc2cc(C(=O)N3CCC(c4ccc(C#N)cc4)CC3)ccc2C)NC(=O)NC1=O (stereo not shown) : 100
CCCCOc1ccc(S(=O)(=O)Nc2ccc(C)c(C(=O)N3CCC(c4ccc(C#N)cc4)CC3)c2)cc1 : 71
C=CS(=O)(=O)Nc1cc(C(=O)N2CCC(c3ccc(C(N)=O)cc3)CC2)ccc1C : 76
Cc1ccc(C(=O)N2CCC(c3ccc(C#N)cc3)CC2)cc1NS(=O)(=O)CS(C)(=O)=O : 72
Cc1ccc(C(=O)N2CCC(c3ccc(C#N)cc3)CC2)cc1NS(C)(=O)=O : 86
Cc1ccc(C(=O)N2CCC(c3ccc(C#N)cc3)CC2)cc1NS(=O)(=O)c1c(C)nn(C)c1C : 87
Cc1ccc(NS(=O)(=O)c2ccc3c(c2)CC(=O)N3)cc1C(=O)N1CCC(c2ccc(C#N)cc2)CC1 : 84
Cc1ccc(C(=O)N2CCC(c3ccc(C#N)cc3)CC2)cc1NS(=O)(=O)CC(F)(F)F : 83
